All values here come from the NIST ThermoML archive (doi:10.1021/je1000582).

experiment: activity coefficient (dimensionless); of the first substance listed, at infinite dilution; xn = mol fraction of the nth substance listed; details: 308.15 K; 101 kPa; Liquid; Chromatography; x1 = 0
Property name: activity coefficient
Respond numerically, and do not add a unit to the figure.

Return reported activity coefficient. Input molecule: C1CCCCC1 [cyclohexane] + CCCC[n+]1cccc(C)c1.O=S(=O)([O-])C(F)(F)F
13.2

State its activity coefficient for this molecule: CCCCCC [hexane] + CCCC[n+]1cccc(C)c1.O=S(=O)([O-])C(F)(F)F
24.7

Please give the documented activity coefficient of CCCOCCC [dipropyl ether] + CCCC[n+]1cccc(C)c1.O=S(=O)([O-])C(F)(F)F
10.4

State, in one line, measured activity coefficient of C#CCCCC [1-hexyne] + CCCC[n+]1cccc(C)c1.O=S(=O)([O-])C(F)(F)F
2.86
